Quick reference for solubility at 24 h among some compounds
experiment: Solubility measurement (DMSO solution precipitation method); type: physicochemical; conditions: aqueous buffer, kinetic from dmso stock; McIlvaine buffer pH 6.8, 24 h; read-out: Solubility [μg/ml] pH 6.8
MEASURED_PROPERTY: solubility at 24 h

compound_smiles=C[C@H]1CN(C)CCCN1c1cc(O[C@@H]2CNC2(C)C)nc(-c2noc3c2CCC[C@@]32CCCc3sc(N)c(C#N)c32)n1 measured_property="solubility at 24 h" measurement="> 146 µg/mL"
compound_smiles=C[C@H](Oc1cc(OCC2(N(C)C)COC2)nc(-c2onc3c2CCC[C@@]32CCCc3sc(N)c(C#N)c32)n1)[C@@H]1CCCN1C measured_property="solubility at 24 h" measurement="> 125 µg/mL"
compound_smiles=C[C@H](Oc1cc(N(C)CCN(C)C)nc(-c2noc3c2CCC[C@@]32CCCc3sc(N)c(C#N)c32)n1)[C@@H]1CCCN1C measured_property="solubility at 24 h" measurement="> 142 µg/mL"
compound_smiles=C[C@H](Oc1cc(Nc2ccccn2)nc(-c2onc3c2CCC[C@@]32CCCc3sc(N)c(C#N)c32)n1)[C@@H]1CCCN1C measured_property="solubility at 24 h" measurement="2 µg/mL"
compound_smiles=C[C@H](Oc1cc(Nc2cnccn2)nc(-c2noc3c2CCC[C@@]32CCCc3sc(N)c(C#N)c32)n1)[C@@H]1CCCN1C measured_property="solubility at 24 h" measurement="11 µg/mL"
compound_smiles=C[C@H](Oc1cc(O[C@@H]2CNC2(C)C)nc(-c2noc3c2CCC[C@@]32CCCc3sc(N)c(C#N)c32)n1)[C@@H]1C[C@@H](F)CN1C measured_property="solubility at 24 h" measurement="> 143 µg/mL"
compound_smiles=C[C@H](Oc1cc(Nc2ncccn2)nc(-c2noc3c2CCC[C@@]32CCCc3sc(N)c(C#N)c32)n1)[C@@H]1CCCN1C measured_property="solubility at 24 h" measurement="< 1 µg/mL"
compound_smiles=C[C@H](Oc1cc(Nc2ncco2)nc(-c2noc3c2CCC[C@@]32CCCc3sc(N)c(C#N)c32)n1)[C@@H]1CCCN1C measured_property="solubility at 24 h" measurement="44 µg/mL"
compound_smiles=C[C@H](Oc1cc(N(C)C)nc(-c2noc3c2CCC[C@@]32CCCc3sc(N)c(C#N)c32)n1)[C@@H]1CCCN1C measured_property="solubility at 24 h" measurement="95 µg/mL"
compound_smiles=C[C@H](Oc1cc(Oc2cncnc2)nc(-c2noc3c2CCC[C@@]32CCCc3sc(N)c(C#N)c32)n1)[C@@H]1CCCN1C measured_property="solubility at 24 h" measurement="> 124 µg/mL"
compound_smiles=C[C@H](Oc1cc(O[C@H]2CN(C)C(C)(C)C2)nc(-c2noc3c2CCC[C@@]32CCCc3sc(N)c(C#N)c32)n1)[C@@H]1CCCN1C measured_property="solubility at 24 h" measurement="> 164 µg/mL"
compound_smiles=C[C@H](Oc1cc(OCC2(N(C)C)CC2)nc(-c2noc3c2CCC[C@@]32CCCc3sc(N)c(C#N)c32)n1)[C@@H]1CCCN1C measured_property="solubility at 24 h" measurement="> 126 µg/mL"
compound_smiles=COCCOc1cc(O[C@@H](C)[C@@H]2CCCN2C)nc(-c2noc3c2CCC[C@@]32CCCc3sc(N)c(C#N)c32)n1 measured_property="solubility at 24 h" measurement="108 µg/mL"
